All figures here come from PubChem BioAssay AID1963856.

- Test system: LG0567-F671-PDC KRAS tumor spheroid viability;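 further: drug exposure lasted seven days after spheroids formed for three days; 100% = DMSO vehicle control viability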
- Method notes: Anticancer human tumor LG0567-F671-PDC patient-derived lung adenocarcinoma cell line growth inhibition [KRAS2]
- Experimental conditions: second compound 3.16 µM; first compound 0.001 µM; hits give low values; spheroids with HUVEC and MSC
I'd be grateful if you could share measured viability, T/C for these entries.

Bench note: what viability, T/C did CC(=O)Nc1cccc(-n2c(=O)n(C3CC3)c(=O)c3c(Nc4ccc(I)cc4F)n(C)c(=O)c(C)c32)c1 + C=CC(=O)N1CCN(c2nc(OCC3CCCN3C)nc3c2CCN(c2cccc4cccc(C)c24)C3)CC1CC#N show?
12.8%

Value lookup for viability, T/C; key = Cn1ncnc1[C@H]1c2n[nH]c(=O)c3cc(F)cc(c23)N[C@@H]1c1ccc(F)cc1 + CNCc1ccccc1-c1csc(C(C)Nc2nc(C)nc3cc(OC)c(OC)cc23)c1
0.9%

Value lookup for viability, T/C; key = CN(C)C/C=C/C(=O)Nc1cc2c(Nc3ccc(F)c(Cl)c3)ncnc2cc1O[C@H]1CCOC1 + CC1OCC2(CCN(c3cnc(Sc4ccnc(N)c4Cl)c(N)n3)CC2)C1N
15.2%

Please report the recorded viability, T/C for CC(=O)Nc1cccc(-n2c(=O)n(C3CC3)c(=O)c3c(Nc4ccc(I)cc4F)n(C)c(=O)c(C)c32)c1 + CNCc1ccccc1-c1csc(C(C)Nc2nc(C)nc3cc(OC)c(OC)cc23)c1 .
0.22%
